Values compiled from patent US8445636B2.

system: Staphylococcus aureus ATCC 6538P; type: cell-based; conditions: ATCC 6538, pH 7.4
Non-standard residues stand in square brackets, D forms with d. Residues, ends and D or L forms follow the SMILES beside them. *: point of attachment. Palmitoyl = CCCCCCCCCCCCCCCC(=O)*
Quick reference: Minimal Inhibitory Concentration, S. aureus ATCC 6538P of the listed items.

The cases that follow already have their Minimal Inhibitory Concentration, S. aureus ATCC 6538P on record.
MOLECULE	MEASURED VALUE
NCCCC[C@@H](N)C(=O)NCC(=O)NCC(=O)NCC(=O)N[C@H](CCCCN)C(=O)NCC(=O)NCC(=O)NCC(=O)N[C@H](CCCCN)C(=O)NCC(=O)NCC(=O)N[C@H](CCCCN)C(N)=O [DK4G8, reference compound] (H-[dK]GGG[dK]GGG[dK]GG[dK]-NH2; N-terminus assumed)	>100 µM
CCCCCCCCCCCCCC(=O)N[C@@H](CCCCN)C(=O)N[C@@H](CCCCN)C(=O)N[C@@H](CCCCN)C(N)=O [MYR-KKK]	12.5 µM
CCCCCCCCCCCCCCCC(=O)N[C@H](CC(C)C)C(=O)N[C@@H](CCCCN)C(=O)N[C@@H](CCCCN)C(=O)N[C@H](CC(C)C)C(=O)N[C@H](CC(C)C)C(=O)N[C@@H](CCCCN)C(=O)N[C@@H](CCCCN)C(=O)N[C@H](CC(C)C)C(=O)N[C@H](CC(C)C)C(=O)N[C@@H](CCCCN)C(=O)N[C@@H](CCCCN)C(=O)N[C@H](CC(C)C)C(N)=O [lipopeptide 24] (Palmitoyl-[dL]KK[dL][dL]KK[dL][dL]KK[dL]-NH2)	50 µM

In the following, a different molecule is considered.
Give a short answer stating reported Minimal Inhibitory Concentration, S. aureus ATCC 6538P for CCCCCCCCCCCCCCCC(=O)N[C@@H](CCC(=O)O)C(=O)N[C@H](CCCCN)C(=O)N[C@@H](CCCCN)C(N)=O [PA-EKK, Palmitoyl-Glu-D-Lys-Lys-NH2] (Palmitoyl-Glu-[dK]-Lys-NH2) .
25 µM

----------
// reported Minimal Inhibitory Concentration, A. baumannii ATCC 19606 per item
tested on: Acinetobacter baumannii ATCC 19606; assay type: cell-based; details: ATCC 19606, pH 7.4
Non-standard residues stand in square brackets, D forms with d. Residues, ends and D or L forms follow the SMILES beside them. *: point of attachment. Palmitoyl = CCCCCCCCCCCCCCCC(=O)*
Unit µM implied. Number only.

COMPOUND	TGT	MEASURED VALUE
CCCCCCCCCCCCCCCC(=O)N[C@@H](CCCCN)C(=O)N[C@H](CCCCN)C(N)=O	Acinetobacter baumannii ATCC 19606	100

Now for a further compound.
Provide only the value of recorded Minimal Inhibitory Concentration, A. baumannii ATCC 19606 for CCCCCCCCCCCCCCCC(=O)N[C@H](CCCCN)C(=O)NCC(=O)NCC(=O)NCC(=O)N[C@H](CCCCN)C(=O)NCC(=O)NCC(=O)NCC(=O)N[C@H](CCCCN)C(=O)NCC(=O)NCC(=O)N[C@H](CCCCN)C(N)=O [lipopeptide 2] (Palmitoyl-[dK]GGG[dK]GGG[dK]GG[dK]-NH2)
25

----------
tested on: Prostate cancer cell line CL1; test: Cytotoxicity, XTT viability; type: cell-based, human; conditions: 24 h incubation, read-out: LC50, Prostate cancer CL1
Non-standard residues stand in square brackets, D forms with d. Residues, ends and D or L forms follow the SMILES beside them. *: point of attachment. Lauroyl = CCCCCCCCCCCC(=O)*
REPORTED PROPERTY: CC50 (µM)
A number alone suffices; assume µM.

Please indicate CC50 recorded for CCCCCCCCCCCC(=O)N[C@H](CC(C)C)C(=O)N[C@@H](CCCNC(=N)N)C(=O)N[C@@H](CCCNC(=N)N)C(=O)N[C@H](CC(C)C)C(=O)N[C@H](CC(C)C)C(=O)N[C@@H](CCCNC(=N)N)C(=O)N[C@@H](CCCNC(=N)N)C(=O)N[C@H](CC(C)C)C(=O)N[C@H](CC(C)C)C(=O)N[C@@H](CCCNC(=N)N)C(=O)N[C@@H](CCCNC(=N)N)C(=O)N[C@H](CC(C)C)C(N)=O [lipopeptide 25] (Lauroyl-[dL]RR[dL][dL]RR[dL][dL]RR[dL]-NH2)
3.12
